Hi there, I'd appreciate the recorded koff for every entry that follows.
# targetSystem: T1, mouse tissue factor pathway inhibitor (TFPI) (mouse, UniProt O54819 29-289, limits assumed)
# T1 construct: bought; also called mTFPI; murine TFPI
# T1 sequence (looked up): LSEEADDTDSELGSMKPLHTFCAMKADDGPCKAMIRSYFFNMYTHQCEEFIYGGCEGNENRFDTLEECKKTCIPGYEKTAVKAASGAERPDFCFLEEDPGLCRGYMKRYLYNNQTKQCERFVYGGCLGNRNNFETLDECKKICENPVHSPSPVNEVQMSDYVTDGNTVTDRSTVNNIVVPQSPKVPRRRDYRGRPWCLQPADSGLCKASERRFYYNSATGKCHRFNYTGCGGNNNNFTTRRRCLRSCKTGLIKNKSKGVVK
# measurementNotes: SPR, TFPI immobilized
In your response, the unit should come after the numeric value.

Measured koff, 2A8 HC_S54F (Fab, V domains shown, also called 2A8-7) VH: QVQLVESGGGLVQPGGSLRLSCAASGFTFRSYGMSWVRQAPGKGLEWVSSIRGFSSSTYYADSVKGRFTISRDNSKNTLYLQMNSLRAEDTAVYYCARKYRYWFDYWGQGTLVTVSS VL: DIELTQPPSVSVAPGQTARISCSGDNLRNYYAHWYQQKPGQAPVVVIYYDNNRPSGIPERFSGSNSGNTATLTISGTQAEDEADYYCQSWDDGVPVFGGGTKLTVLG : 0.00183 s⁻¹

Measured koff, 4B7 HC_D62R (Fab, V domains shown, also called 4B7-D62R) VH: QVQLQQSGPGLVKPSQTLSLTCAISGDSVSSNSAAWSWIRQSPGRGLEWLGIIYKRSKWYNRYAVSVKSRITINPDTSKNQFSLQLNSVTPEDTAVYYCARWHSDKHWGFDYWGQGTLVTVSS VL: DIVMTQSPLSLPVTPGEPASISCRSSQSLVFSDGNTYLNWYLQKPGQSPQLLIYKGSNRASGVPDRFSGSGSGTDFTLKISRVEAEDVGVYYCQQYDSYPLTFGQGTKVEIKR : 0.00367 s⁻¹

Measured koff, 2A8 HC_K99L (Fab, V domains shown, also called 2A8-9) VH: QVQLVESGGGLVQPGGSLRLSCAASGFTFRSYGMSWVRQAPGKGLEWVSSIRGSSSSTYYADSVKGRFTISRDNSKNTLYLQMNSLRAEDTAVYYCARLYRYWFDYWGQGTLVTVSS VL: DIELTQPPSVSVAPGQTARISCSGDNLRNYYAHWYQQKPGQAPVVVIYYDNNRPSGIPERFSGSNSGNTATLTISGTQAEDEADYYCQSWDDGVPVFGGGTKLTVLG : 0.000759 s⁻¹

Measured koff, 2A8 HC_G33P (Fab, V domains shown, also called 2A8-1) VH: QVQLVESGGGLVQPGGSLRLSCAASGFTFRSYPMSWVRQAPGKGLEWVSSIRGSSSSTYYADSVKGRFTISRDNSKNTLYLQMNSLRAEDTAVYYCARKYRYWFDYWGQGTLVTVSS VL: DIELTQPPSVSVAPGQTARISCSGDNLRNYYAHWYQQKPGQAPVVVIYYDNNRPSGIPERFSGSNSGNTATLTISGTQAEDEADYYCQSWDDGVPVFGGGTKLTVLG : 0.00145 s⁻¹

Measured koff, 2A8 HC_S35D (Fab, V domains shown, also called 2A8-4) VH: QVQLVESGGGLVQPGGSLRLSCAASGFTFRSYGMDWVRQAPGKGLEWVSSIRGSSSSTYYADSVKGRFTISRDNSKNTLYLQMNSLRAEDTAVYYCARKYRYWFDYWGQGTLVTVSS VL: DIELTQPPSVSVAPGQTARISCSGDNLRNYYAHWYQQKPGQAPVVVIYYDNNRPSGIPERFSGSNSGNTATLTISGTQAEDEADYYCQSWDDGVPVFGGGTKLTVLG : 0.00246 s⁻¹
